# tested system: UniProt:P05089
# assay name: Inhibition of arginase I, spectrophotometric urea assay at 530 nm
# Type: biochemical
# reported conditions: Formula I compounds, Table 2; read-out: Potency (ARG I)
Where a name gives a salt, the structure may show the parent alone.
The compounds listed here are annotated with their IC50.

Use these answered entries as a reference point.
| compound | tested system | recorded measurement |
| --- | --- | --- |
| N[C@](CCCCB(O)O)(CCN1CCC[C@H]1CO)C(=O)O | UniProt:P05089 | 0.1 to 250 nM |
| NC(CCCCB(O)O)(CCN1CCN(c2ccccc2)CC1)C(=O)O (stereo not shown) [compound 76, dihydrochloride] | UniProt:P05089 | > 5000 nM |
| NC(CCCCB(O)O)(CCN1CCC(Cc2ccc(Cl)cc2)CC1)C(=O)O (stereo not shown) [compound 122, dihydrochloride] | UniProt:P05089 | 251 to 1000 nM |

In one line, give reported IC50 of the entry NC(CCCCB(O)O)(CCN1CCC(Cc2ccc(F)cc2)CC1)C(=O)O (stereo not shown) [compound 127, dihydrochloride] .
251 to 1000 nM

* * *

# tested system: UniProt P78540
# Sequence (P78540 23-354): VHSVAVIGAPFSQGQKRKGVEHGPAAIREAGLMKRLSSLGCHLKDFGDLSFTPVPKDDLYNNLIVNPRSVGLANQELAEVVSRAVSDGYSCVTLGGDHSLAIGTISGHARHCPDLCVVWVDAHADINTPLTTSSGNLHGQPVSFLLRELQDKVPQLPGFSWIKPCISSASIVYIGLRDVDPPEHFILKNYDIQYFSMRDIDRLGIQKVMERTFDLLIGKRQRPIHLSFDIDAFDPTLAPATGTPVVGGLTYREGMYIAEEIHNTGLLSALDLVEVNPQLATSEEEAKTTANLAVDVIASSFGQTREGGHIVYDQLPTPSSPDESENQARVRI
# assay name: Inhibition of arginase II, spectrophotometric urea assay at 530 nm
# Format: biochemical
# reported conditions: Formula I compounds, Table 2; read-out: Potency (ARG II)
pIC50: −log10 of the molar value. Structures can show the parent of a compound that is named as a salt.
The molecules listed here are annotated with their pIC50.

Use these answered entries as a reference point.
| molecule | recorded measurement |
| --- | --- |
| NC(CCCCB(O)O)(CCN1CCC[C@@H](C(=O)O)C1)C(=O)O (stereo partly drawn) | 5.30 to 5.70 |
| NC(CCCCB(O)O)(CCC1Cc2ccccc2CN1Cc1ccc(Cl)cc1)C(=O)O (stereo not drawn) [compound 132, dihydrochloride] | 6.00 to 6.60 |
| CCCCC1(NCCC(N)(CCCCB(O)O)C(=O)O)CC1 (stereo not drawn) [compound 60, dihydrochloride] | 6.00 to 6.60 |
| COc1cc2c(cc1OC)CN(CCC(N)(CCCCB(O)O)C(=O)O)CC2 (stereo not drawn) [compound 26, dihydrochloride] | 6.00 to 6.60 |

In one line, give reported pIC50 of the entry CC1(C)CCN(CCC(N)(CCCCB(O)O)C(=O)O)CC1 (stereo not drawn) [compound 128, dihydrochloride] .
5.70 to 6.00

In one line, give reported pIC50 of the entry COc1ccc(OCCC(N)(CCCCB(O)O)C(=O)O)cc1 (stereo not drawn) [compound 93, hydrochloride] .
< 5.30

In one line, give reported pIC50 of the entry N[C@](CCCCB(O)O)(CCN1CCCCC1)C(=O)O .
6.00 to 6.60

In one line, give reported pIC50 of the entry CCCNCC(N)(CCCCB(O)O)C(=O)O (stereo not drawn) [compound 83, dihydrochloride] .
5.30 to 5.70

In one line, give reported pIC50 of the entry N[C@](CCCCB(O)O)(C[C@H]1CCCN1)C(=O)O (stereo in doubt) .
6.60 to 10.00

* * *

# tested system: human arginase I (ARG I) (Homo sapiens, UniProt P05089)
# Sequence (P05089 whole entry): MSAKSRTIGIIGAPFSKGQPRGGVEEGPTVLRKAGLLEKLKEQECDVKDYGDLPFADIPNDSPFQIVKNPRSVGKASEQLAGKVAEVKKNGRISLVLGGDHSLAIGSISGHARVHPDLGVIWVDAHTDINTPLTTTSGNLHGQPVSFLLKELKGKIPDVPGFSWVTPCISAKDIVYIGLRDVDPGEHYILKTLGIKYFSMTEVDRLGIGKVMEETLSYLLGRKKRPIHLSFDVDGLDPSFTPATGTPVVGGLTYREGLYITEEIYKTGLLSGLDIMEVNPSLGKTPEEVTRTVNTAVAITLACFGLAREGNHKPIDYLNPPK
# assay name: Inhibition of arginase I, spectrophotometric urea assay at 530 nm
# Type: biochemical
# reported conditions: Formula II compounds, Table 2-A; read-out: Potency (ARG I)
pIC50: −log10 of the molar value. Structures can show the parent of a compound that is named as a salt.
The compounds listed here are annotated with their pIC50.

Use these answered entries as a reference point.
| compound | pIC50 |
| --- | --- |
| NC(CCCCB(O)O)(C(=O)O)C1CCN(CCCc2ccc(F)cc2F)CC1 (stereo not shown) [Example 52-A, dihydrochloride] | 6.60 to 10.00 |
| NC(CCCCB(O)O)(C(=O)O)C1CCN(Cc2cccc3c2OCCC3)CC1 (stereo not shown) [Example 60-A, dihydrochloride] | 6.60 to 10.00 |
| NC(CCCCB(O)O)(C(=O)O)C1CCN(C(=O)Nc2ccc(Cl)cc2)CC1 (stereo not shown) [32-A, hydrochloride] | 6.00 to 6.60 |
| NC(CCCCB(O)O)(C(=O)O)[C@H]1C[C@@H](NCc2cc3c(cc2Cl)OCO3)C1 (stereo partly shown) [Example 78-A, dihydrochloride] | 6.60 to 10.00 |

Could you now consider this next compound?
In one line, give reported pIC50 of the entry NC(CCCCB(O)O)(C(=O)O)C1CCN(C(=S)Nc2ccc(Cl)cc2)C1 (stereo not shown) [35-A, hydrochloride] .
6.00 to 6.60
